- EXPERIMENTAL_SYSTEM: HIV Env of isolate 191084B7-19 (clade A) (HIV)
- ASSAY_INFO: cell-based or functional assay

# BINDER, IC80 (µg/ml) with constrains [µg/mL]
measured = [
    ("ePGDM9 (antibody, V domains shown) VH: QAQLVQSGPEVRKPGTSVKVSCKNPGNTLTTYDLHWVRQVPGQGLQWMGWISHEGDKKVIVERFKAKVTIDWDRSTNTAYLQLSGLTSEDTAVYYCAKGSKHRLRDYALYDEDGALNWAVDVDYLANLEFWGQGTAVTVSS VL: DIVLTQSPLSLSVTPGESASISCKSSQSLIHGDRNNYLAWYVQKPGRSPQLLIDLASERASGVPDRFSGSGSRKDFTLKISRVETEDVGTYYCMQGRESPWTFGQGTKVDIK", 0.006),
]
